B1: TMEM59 peptide (residues 268–280), wild type [modified: long spacer (Tds) at the N-terminal end, used for immobilisation; long spacer (Tds) at the N-terminal end, used for immobilisation] [not stated] / GST-HA-ATG16L1(231–607) … (parent)
chain 1: PLPVEQDDDIEVIVDETSDHTEETSPVRAISRAATKRLSQPAGGLLDSITNIFGRRSVSSFPVPQDNVDTHPGSGKEVRVPATALCVFDAHDGEVNAVQFSPGSRLLATGGMDRRVKLWEVFGEKCEFKGSLSGSNAGITSIEFDSAGSYLLAASNDFASRIWTVDDYRLRHTLTGHSGKVLSAKFLLDNARIVSGSHDRTLKLWDLRSKVCIKTVFAGSSCNDIVCTEQCVMSGHFDKKIRFWDIRSESIVREMELLGKITALDLNPERTELLSCSRDDLLKVIDLRTNAIKQTFSAPGFKCGSDWTRVVFSPDGSYVAAGSAEGSLYIWSVLTGKVEKVLSKQHSSSINAVAWSPSGSHVVSVDKGCKAVLWAQY
chain 2: YVPSEKLSIYGDL

variants of: B1; experiment: peptide microarray; conditions: with GST-HA-ATG16L1(231–607) [human]; ligand 200, 50, 20 nM; parent: 100
percent of parent for assorted variants
Provide the reading as a plain figure in % WT.

Study these solved cases before continuing.
# percent of parent lookup, item chain 2 Y1V 15

Reported percent of parent, variant chain 2 E5K : ____ 330

Consider the variant chain 2 K6A and give its measured percent of parent. 6

---
Fill in: percent of parent of chain 2 K6W is ___ 126

Bench note: what percent of parent did chain 2 L7P show? 13

What value of measured percent of parent is listed for chain 2 K6L ? 35

Query: percent of parent; subject: chain 2 S8G 56

// lookup percent of parent for chain 2 S4V 156

Param item = chain 2 Y1T ; retrieve measured percent of parent. 17

Dear colleague, I am looking for the recorded percent of parent of the following variant: chain 2 S4A 78

Using the record for chain 2 V2E , report its percent of parent. 9

Any idea what percent of parent was measured for chain 2 L7I ? 83

Please report the recorded percent of parent for chain 2 P3L . 493

Reported percent of parent, variant chain 2 L7Q : ____ 11

Report percent of parent for chain 2 Y1M please. 12
